# MEASURED TARGET: porcine pancreatic α-amylase (Sus scrofa)
# EXPERIMENTAL PROTOCOL: Continuous α-amylase activity assay (starch hydrolysis) by ITC
# Assay type: biochemical
# MEASUREMENT SETUP: 100 µM flavan-3-ol, inj. 3
# Procedure: Without rebuffering, α-amylase was diluted each day with 0.1 M phosphate buffer/0.04 M NaCl to a final dilution of 1:1000 and stored at 4 °C. […] The release of heat during the conversion of starch was monitored, and calculations were performed using Microsoft Excel software. The detected thermal power is directly proportional to the enzymatic rate (v0) (eq 1 and 2).[40],[41] […]
Each record is given 1 (yes) if its reported vmax is strictly below 70%. Records at or above 70% are given 0 (no).

molecule="Oc1cc(O)c2c(c1)O[C@H](c1ccc(O)c(O)c1)[C@@H](O)C2 [CAT, (+)-Catechin]" assigned_class="0 (no)"
molecule="Oc1cc(O)c2c(c1)O[C@H](c1ccc(O)c(O)c1)[C@H](O)[C@H]2c1c(O)cc(O)c2c1O[C@H](c1ccc(O)c(O)c1)[C@H](O)[C@H]2c1c(O)cc(O)c2c1O[C@H](c1ccc(O)c(O)c1)[C@H](O)C2 [PC C1, procyanidin C1]" assigned_class="1 (yes)"
molecule="Oc1cc(O)c2c(c1)O[C@H](c1ccc(O)c(O)c1)[C@H](O)C2 [EC, (−)-Epicatechin]" assigned_class="0 (no)"
molecule="Oc1cc(O)c2c(c1)O[C@H](c1ccc(O)c(O)c1)[C@H](O)[C@H]2c1c(O)cc(O)c2c1O[C@H](c1ccc(O)c(O)c1)[C@H](O)C2 [PC B2, procyanidin B2]" assigned_class="1 (yes)"

====

In this section, each of the compounds is paired with its reported pKi.
# MEASURED TARGET: porcine pancreatic α-amylase (Sus scrofa)
# EXPERIMENTAL PROTOCOL: Continuous α-amylase activity assay (starch hydrolysis) by ITC
# Type: biochemical
# MEASUREMENT SETUP: 100 µM flavan-3-ol, inj. 3; read-out: Kiu
pKi: −log10 of the molar value.
PROPERTY: pKi

compound="Oc1cc(O)c2c(c1)O[C@H](c1ccc(O)c(O)c1)[C@H](O)[C@H]2c1c(O)cc(O)c2c1O[C@H](c1ccc(O)c(O)c1)[C@@H](O)C2 [PC B1, procyanidin B1]" property=pKi reported_result=3.62
compound="Oc1cc(O)c2c(c1)O[C@H](c1ccc(O)c(O)c1)[C@H](O)C2 [EC, (−)-Epicatechin]" property=pKi reported_result=3.48
compound="Oc1cc(O)c2c(c1)O[C@H](c1ccc(O)c(O)c1)[C@H](O)[C@H]2c1c(O)cc(O)c2c1O[C@H](c1ccc(O)c(O)c1)[C@H](O)C2 [PC B2, procyanidin B2]" property=pKi reported_result=3.78
compound="Oc1cc(O)c2c(c1)O[C@H](c1ccc(O)c(O)c1)[C@@H](O)C2 [CAT, (+)-Catechin]" property=pKi reported_result=3.40
compound="Oc1cc(O)c2c(c1)O[C@H](c1ccc(O)c(O)c1)[C@H](O)[C@H]2c1c(O)cc(O)c2c1O[C@H](c1ccc(O)c(O)c1)[C@H](O)[C@H]2c1c(O)cc(O)c2c1O[C@H](c1ccc(O)c(O)c1)[C@H](O)C2 [PC C1, procyanidin C1]" property=pKi reported_result=3.84

====

In this section, each of the compounds is paired with its reported ΔH.
# MEASURED TARGET: porcine pancreatic α-amylase (Sus scrofa, UniProt P00690)
# Sequence (P00690 16-511): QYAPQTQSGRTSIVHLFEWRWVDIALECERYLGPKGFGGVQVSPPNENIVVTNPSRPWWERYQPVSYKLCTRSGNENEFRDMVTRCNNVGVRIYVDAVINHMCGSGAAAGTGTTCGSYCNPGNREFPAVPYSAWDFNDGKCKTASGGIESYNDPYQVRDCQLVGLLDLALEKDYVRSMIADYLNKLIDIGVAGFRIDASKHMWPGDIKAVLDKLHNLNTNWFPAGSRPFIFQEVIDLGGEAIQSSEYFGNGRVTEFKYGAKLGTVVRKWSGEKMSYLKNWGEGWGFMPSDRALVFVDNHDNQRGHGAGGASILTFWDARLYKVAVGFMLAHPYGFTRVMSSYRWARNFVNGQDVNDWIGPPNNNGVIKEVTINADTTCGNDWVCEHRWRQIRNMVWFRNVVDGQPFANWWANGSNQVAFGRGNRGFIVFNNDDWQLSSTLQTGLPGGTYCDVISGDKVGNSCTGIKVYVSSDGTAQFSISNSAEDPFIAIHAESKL
# EXPERIMENTAL PROTOCOL: Interaction studies by isothermal titration calorimetry (ITC)
# Format: binding
# MEASUREMENT SETUP: phosphate buffer, 298 K, n set to 1
PROPERTY: ΔH (kJ/mol)

compound=Oc1cc(O)c2c(c1)O[C@H](c1ccc(O)c(O)c1)[C@H](O)[C@H]2c1c(O)cc(O)c2c1O[C@H](c1ccc(O)c(O)c1)[C@@H](O)C2 reported_result=-22
compound=Oc1cc(O)c2c(c1)O[C@H](c1ccc(O)c(O)c1)[C@H](O)[C@H]2c1c(O)cc(O)c2c1O[C@H](c1ccc(O)c(O)c1)[C@H](O)C2 reported_result=-8
compound="Oc1cc(O)c2c(c1)O[C@H](c1ccc(O)c(O)c1)[C@H](O)C2 [EC, (−)-Epicatechin]" reported_result=-72
compound="Oc1cc(O)c2c(c1)O[C@H](c1ccc(O)c(O)c1)[C@@H](O)C2 [CAT, (+)-Catechin]" reported_result=-53

====

# MEASURED TARGET: porcine pancreatic α-amylase (Sus scrofa, UniProt P00690)
# EXPERIMENTAL PROTOCOL: Continuous α-amylase activity assay (starch hydrolysis) by ITC
# Format: biochemical
# MEASUREMENT SETUP: 100 μM flavan-3-ol, 310 K
In this section, each of the compounds is paired with its reported α(Kic/Kiu).
PROPERTY: α(Kic/Kiu)

compound="Oc1cc(O)c2c(c1)O[C@H](c1ccc(O)c(O)c1)[C@H](O)C2 [EC, (−)-Epicatechin]" property=α(Kic/Kiu) reported_result=0.7
compound="Oc1cc(O)c2c(c1)O[C@H](c1ccc(O)c(O)c1)[C@H](O)[C@H]2c1c(O)cc(O)c2c1O[C@H](c1ccc(O)c(O)c1)[C@@H](O)C2 [PC B1, procyanidin B1]" property=α(Kic/Kiu) reported_result=0.7
compound="Oc1cc(O)c2c(c1)O[C@H](c1ccc(O)c(O)c1)[C@H](O)[C@H]2c1c(O)cc(O)c2c1O[C@H](c1ccc(O)c(O)c1)[C@H](O)[C@H]2c1c(O)cc(O)c2c1O[C@H](c1ccc(O)c(O)c1)[C@H](O)C2 [PC C1, procyanidin C1]" property=α(Kic/Kiu) reported_result=0.9
compound="Oc1cc(O)c2c(c1)O[C@H](c1ccc(O)c(O)c1)[C@H](O)[C@H]2c1c(O)cc(O)c2c1O[C@H](c1ccc(O)c(O)c1)[C@H](O)C2 [PC B2, procyanidin B2]" property=α(Kic/Kiu) reported_result=1.0
compound="Oc1cc(O)c2c(c1)O[C@H](c1ccc(O)c(O)c1)[C@@H](O)C2 [CAT, (+)-Catechin]" property=α(Kic/Kiu) reported_result=0.8

====

# MEASURED TARGET: porcine pancreatic α-amylase (Sus scrofa, UniProt P00690)
# EXPERIMENTAL PROTOCOL: Continuous α-amylase activity assay (starch hydrolysis) by ITC
# Type: biochemical
# MEASUREMENT SETUP: uncompetitive inhibition constant; 100 μM flavan-3-ol, 310 K, initial injection (inj. 1); read-out: Kiu
pKi: −log10 of the molar value.
In this section, each of the compounds is paired with its reported pKi.
PROPERTY: pKi

compound="Oc1cc(O)c2c(c1)O[C@H](c1ccc(O)c(O)c1)[C@@H](O)C2 [CAT, (+)-Catechin]" reported_result=3.37
compound=Oc1cc(O)c2c(c1)O[C@H](c1ccc(O)c(O)c1)[C@H](O)[C@H]2c1c(O)cc(O)c2c1O[C@H](c1ccc(O)c(O)c1)[C@H](O)[C@H]2c1c(O)cc(O)c2c1O[C@H](c1ccc(O)c(O)c1)[C@H](O)C2 reported_result=3.99

====

In this section, each of the molecules is paired with its reported saturation protein–ligand arom., corrected by a blank.
# MEASURED TARGET: UniProt P00690
# EXPERIMENTAL PROTOCOL: Saturation transfer difference (STD)-NMR interaction study
# Format: binding
# MEASUREMENT SETUP: 10 μM α-amylase, 1 mM ligand, 298 K, catechol ring protons
PROPERTY: saturation protein–ligand arom., corrected by a blank (%)

molecule=Oc1cc(O)c2c(c1)O[C@H](c1ccc(O)c(O)c1)[C@H](O)[C@H]2c1c(O)cc(O)c2c1O[C@H](c1ccc(O)c(O)c1)[C@H](O)[C@H]2c1c(O)cc(O)c2c1O[C@H](c1ccc(O)c(O)c1)[C@H](O)C2 reported_result=11
molecule="Oc1cc(O)c2c(c1)O[C@H](c1ccc(O)c(O)c1)[C@@H](O)C2 [CAT, (+)-Catechin]" reported_result=11
molecule=Oc1cc(O)c2c(c1)O[C@H](c1ccc(O)c(O)c1)[C@H](O)[C@H]2c1c(O)cc(O)c2c1O[C@H](c1ccc(O)c(O)c1)[C@@H](O)C2 reported_result=14
molecule=Oc1cc(O)c2c(c1)O[C@H](c1ccc(O)c(O)c1)[C@H](O)[C@H]2c1c(O)cc(O)c2c1O[C@H](c1ccc(O)c(O)c1)[C@H](O)C2 reported_result=9
molecule="Oc1cc(O)c2c(c1)O[C@H](c1ccc(O)c(O)c1)[C@H](O)C2 [EC, (−)-Epicatechin]" reported_result=21

====

# MEASURED TARGET: porcine pancreatic α-amylase (Sus scrofa, UniProt P00690)
# EXPERIMENTAL PROTOCOL: Interaction studies by isothermal titration calorimetry (ITC)
# Assay type: binding
# MEASUREMENT SETUP: phosphate buffer, 298 K, n set to 1
In this section, each of the compounds is paired with its reported ΔG.
PROPERTY: ΔG (kcal/mol)

compound="Oc1cc(O)c2c(c1)O[C@H](c1ccc(O)c(O)c1)[C@H](O)C2 [EC, (−)-Epicatechin]" measured_target="porcine pancreatic α-amylase (Sus scrofa, UniProt P00690)" reported_result=-4.78
compound=Oc1cc(O)c2c(c1)O[C@H](c1ccc(O)c(O)c1)[C@H](O)[C@H]2c1c(O)cc(O)c2c1O[C@H](c1ccc(O)c(O)c1)[C@H](O)C2 measured_target="porcine pancreatic α-amylase (Sus scrofa, UniProt P00690)" reported_result=-4.06
compound=Oc1cc(O)c2c(c1)O[C@H](c1ccc(O)c(O)c1)[C@H](O)[C@H]2c1c(O)cc(O)c2c1O[C@H](c1ccc(O)c(O)c1)[C@@H](O)C2 measured_target="porcine pancreatic α-amylase (Sus scrofa, UniProt P00690)" reported_result=-4.06
compound="Oc1cc(O)c2c(c1)O[C@H](c1ccc(O)c(O)c1)[C@@H](O)C2 [CAT, (+)-Catechin]" measured_target="porcine pancreatic α-amylase (Sus scrofa, UniProt P00690)" reported_result=-4.54
